Molecular target: Protein arginine N-methyltransferase 5 (Homo sapiens, UniProt O14744)
Sequence (O14744 whole entry): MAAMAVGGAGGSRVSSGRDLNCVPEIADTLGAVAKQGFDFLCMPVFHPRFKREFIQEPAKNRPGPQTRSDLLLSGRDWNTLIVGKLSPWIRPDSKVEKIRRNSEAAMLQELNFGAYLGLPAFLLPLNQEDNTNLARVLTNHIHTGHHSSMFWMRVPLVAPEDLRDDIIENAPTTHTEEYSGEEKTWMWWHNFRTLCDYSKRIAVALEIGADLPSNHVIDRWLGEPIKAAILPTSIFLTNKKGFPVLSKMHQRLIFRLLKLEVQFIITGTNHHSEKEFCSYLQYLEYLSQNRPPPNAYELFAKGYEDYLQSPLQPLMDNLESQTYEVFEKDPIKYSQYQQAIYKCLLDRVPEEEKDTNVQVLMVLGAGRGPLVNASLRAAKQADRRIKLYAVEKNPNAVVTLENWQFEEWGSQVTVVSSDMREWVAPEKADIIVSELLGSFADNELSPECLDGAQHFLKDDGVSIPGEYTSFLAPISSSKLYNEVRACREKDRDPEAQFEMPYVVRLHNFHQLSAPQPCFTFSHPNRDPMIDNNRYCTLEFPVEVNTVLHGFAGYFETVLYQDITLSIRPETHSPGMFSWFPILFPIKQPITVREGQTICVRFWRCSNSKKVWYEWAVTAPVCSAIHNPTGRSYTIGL
Assay: Inhibition of PRMT5 (unknown origin) assessed as enzymatic activity by AlphaLISA assay
pIC50: −log10 of the molar value.
OBSERVABLE: pIC50

| TEST SMILES | OBSERVABLE | EXPERIMENTAL RESULT |
| --- | --- | --- |
| COC(=O)c1ccccc1NC(=O)CCN1CCc2ccccc2C1 | pIC50 | 4.47 |

----------
pIC50 reference
Biological target: Protein arginine N-methyltransferase 5 (Homo sapiens, UniProt O14744)
Test: Inhibition of PRMT5 human PRMT5 using [3H]-SAM as substrate by radioactive methylation assay
pIC50: −log10 of the molar value.
OBSERVABLE: pIC50

| COMPOUND | EXPERIMENTAL RESULT |
| --- | --- |
| OC(CN1CCc2ccccc2C1)Cn1cc(-c2cccc(NC3CCOCC3)c2)nn1 (centres undefined) | 5.62 |
| O=[N+]([O-])c1cccc(-c2cn(CC(O)CN3CCc4ccccc4C3)nn2)c1 (centres undefined) | 5.26 |
| Nc1cccc(-c2cn(CC(O)CN3CCc4ccccc4C3)nn2)c1 (centres undefined) | 4.47 |
| OC(CN1CCc2ccccc2C1)Cn1cc(-c2cccc(NC3CCC3)c2)nn1 (centres undefined) | 6.14 |
